# Test: Bi-directional transport of REG across Caco-2 cell monolayers
# Assay type: in vitro ADME
# Experimental Parameters: human, Caco-2, pH 7.4, REG 20 µM, Caco-2, mean ± SD, n = 3; read-out: ER (efflux ratio, papp.BA/papp.AB)
Measured Metric: efflux ratio at 180 min, 20 µM
Answer using only a numeral; do not append any unit.

Reported efflux ratio at 180 min, 20 µM for CCOc1cc(CC(=O)N[C@@H](CC(C)C)c2ccccc2N2CCCCC2)ccc1C(=O)O [REG, Repaglinide] was 0.64

* * *

# Test: Bi-directional transport of REG across Caco-2 cell monolayers
# Type: in vitro ADME
# Experimental Parameters: human, pH 7.4; REG 40 µM, Caco-2, mean ± SD, n = 3
Measured Metric: Papp A→B at 180 min, 40 µM (×10⁻⁶ cm/s)
Report the figure in ×10⁻⁶ cm/s without appending any unit label.

The recorded Papp A→B at 180 min, 40 µM for entry CCOc1cc(CC(=O)N[C@@H](CC(C)C)c2ccccc2N2CCCCC2)ccc1C(=O)O [REG, Repaglinide] equals 18.4
